system: A549; assay: relative viability (normalised to negative control = 1, bortezomib = 0) (fraction); higher = less cytotoxic; conditions: inflammatory serum-free RHB-A with cytokines + LPS; 5 d + 24 h CellTiter-Blue; compound 300 nM; GSK126 pretreatment: none (vehicle)
Structures can show the parent of a compound that is named as a salt.
Each entry below carries its reported relative viability.

Molecule: CO[C@H]1C(=O)[C@]2(C)[C@@H](OC)C[C@H]3OC[C@@]3(OC(C)=O)[C@H]2[C@H](OC(=O)c2ccccc2)[C@]2(O)C[C@H](OC(=O)[C@H](O)[C@@H](NC(=O)OC(C)(C)C)c3ccccc3)C(C)=C1C2(C)C
relative viability: 0.421

Molecule: Cn1c(=O)n(-c2ccc(C(C)(C)C#N)cc2)c2c3cc(-c4cnc5ccccc5c4)ccc3ncc21
relative viability: 0.21

Molecule: Cc1nc(N)sc1-c1ccnc(Nc2ccc(N3CCOCC3)cc2)n1
relative viability: 0.72

Molecule: O=C(Nc1c[nH]nc1-c1nc2ccc(CN3CCOCC3)cc2[nH]1)NC1CC1
relative viability: 0.279

Molecule: Cn1nnc2c(C(N)=O)ncn2c1=O [Temozolomide]
relative viability: 0.943

Molecule: COC(=O)c1ccc2c(C(=Nc3ccc(N(C)C(=O)CN4CCN(C)CC4)cc3)c3ccccc3)c(O)[nH]c2c1
relative viability: 1.01

Molecule: N#CC(=C(/N)Sc1ccccc1N)/C(C#N)=C(/N)Sc1ccccc1N
relative viability: 0.684

Molecule: CC(C)n1nc(-c2cc3cc(O)ccc3[nH]2)c2c(N)ncnc21
relative viability: 0.431

Molecule: COc1ccc(-c2ccc3c(N4CCOCC4)nc(N4C[C@@H](C)O[C@@H](C)C4)nc3n2)cc1CO
relative viability: 0.515

Molecule: CCC1=C[C@@H]2CN(C1)Cc1c([nH]c3ccccc13)[C@@](C(=O)OC)(c1cc3c(cc1OC)N(C)[C@H]1[C@@](O)(C(=O)OC)[C@H](OC(C)=O)[C@]4(CC)C=CCN5CC[C@]31[C@@H]54)C2 [Vinorelbine tartrate]
relative viability: 0.307

Molecule: O=C1NC(=O)/C(=C/c2ccc3c(c2)OC(F)(F)O3)S1
relative viability: 0.968

Molecule: Cc1ccc(S(=O)(=O)Nc2nc3ccccc3nc2Nc2ccc3nsnc3c2)cc1
relative viability: 0.842

Molecule: C=CC(=O)Nc1cccc(Oc2nc(Nc3ccc(N4CCN(C)CC4)cc3OC)ncc2Cl)c1
relative viability: 0.87

Molecule: NC(=O)Nc1cc(-c2cccc(F)c2)sc1C(=O)N[C@H]1CCCNC1
relative viability: 0.194

Molecule: Cc1cc(C(=O)NOCCO)c(Nc2ccc(I)cc2F)n(C)c1=O
relative viability: 0.0366

Molecule: COc1cc2c(Nc3ccc(NC(=O)c4ccccc4)cc3)ncnc2cc1OCCCN1CCOCC1
relative viability: 0.985

* * *

system: A549; assay: relative viability (normalised to negative control = 1, bortezomib = 0) (fraction); higher = less cytotoxic; settings: inflammatory serum-free RHB-A with cytokines + LPS; 5 d + 24 h CellTiter-Blue; compound 30 nM; GSK126 pretreatment: 5 uM GSK126
Value kind: relative viability

Input smiles: COc1cccc(-c2cc(=O)c3ccccc3o2)c1N
Result value: 0.734
//
Input smiles: COC(=O)Nc1ccc(-c2nc(N3CCOCC3)c3cnn(C4CCN(C(=O)OC)CC4)c3n2)cc1
Result value: 0.691
//
Input smiles: O=C1NC(=O)/C(=C/c2ccc3nccc(-c4ccncc4)c3c2)S1
Result value: 0.83
